experimental-system: MAPK14 (human)
measurement-label: IC50

A selection of reference data follows.
>>> print(df.to_string())
                                   compound  experimental_system  data_value
0  N#Cc1sc2c(ccc(=O)n2-c2ccccc2)c1NCc1ccccc1       MAPK14 (human)      ≤ 1 µM
1  CCOC(=O)c1sc2c(ccc(=O)n2-c2ccccc2)c1NCc1ccccn1       MAPK14 (human)      ≤ 1 µM
2  CCOC(=O)c1sc2c(ccc(=O)n2-c2ccccc2)c1CCc1ccccc1       MAPK14 (human)      ≤ 1 µM
3  NC(=O)c1sc2c(ccc(=O)n2-c2ccccc2)c1Sc1ccccc1       MAPK14 (human)      ≤ 1 µM
4  CCOC(=O)c1sc2c(ccc(=O)n2-c2ccccc2)c1C(O)c1cccc(C)c1 (centres undefined)       MAPK14 (human)      ≤ 1 µM

State its IC50 on MAPK14 (human): CCOC(=O)c1sc2c(ccc(=O)n2-c2ccccc2)c1N(C)Cc1ccccc1
≤ 1 µM

State its IC50 on MAPK14 (human): CCOC(=O)c1sc2c(ccc(=O)n2-c2ccccc2)c1C(O)c1ccccc1 (centres undefined)
≤ 1 µM

State its IC50 on MAPK14 (human): CCOC(=O)c1sc2c(ccc(=O)n2-c2ccccc2)c1NC(C)c1ccccc1 (centres undefined)
≤ 1 µM

State its IC50 on MAPK14 (human): CCOC(=O)c1sc2c(ccc(=O)n2-c2ccccc2)c1NCc1c(F)cccc1F
≤ 1 µM
